STUDY TARGET: CDK9/cyclin T1 (Homo sapiens) (UniProt O60563+P50750)
TEST NAME: Inhibition of CDK9/cyclin T (unknown origin) using […] at 1 uM incubated for 40 mins in presence of ATP by Kinase-Glo assay relative to control
Type: protein-complex assay
METRIC: inhibition (%)

>>> readout_number("c1ccc(Nc2nccc(Nc3nccs3)n2)cc1")
18
>>> readout_number("Cc1cnc(Nc2ccc(S(=O)(=O)NC3CC3)cc2)nc1Nc1nccs1")
62
>>> readout_number("Fc1ccc(Nc2nccc(Nc3nccs3)n2)cc1")
6
>>> readout_number("CCOC(=O)c1cnc(Nc2nc(Nc3ccc(S(N)(=O)=O)cc3)ncc2C)s1")
79
>>> readout_number("COc1ccc(Nc2nccc(Nc3cc[nH]n3)n2)cc1")
29

I = CCOC(=O)c1cnc(Nc2nc(Nc3ccc(S(N)(=O)=O)cc3)ncc2F)s1
II = CC(C)c1csc(Nc2ccnc(Nc3ccc(S(N)(=O)=O)cc3)n2)n1
Recorded inhibition values differ for I and II ; which one is higher? Refer to your chosen entry by its label in the reply. II

I = Brc1ccc(Nc2nccc(Nc3nccs3)n2)cc1
II = COC(=O)c1sc(Nc2nc(Nc3ccc(S(N)(=O)=O)cc3)ncc2C)nc1C
Identify the entry with the smaller inhibition: I or II . Respond with the label that goes with your answer. I

P = CCOC(=O)c1cnc(Nc2nc(Nc3ccc(S(N)(=O)=O)cc3)ncc2OC)s1
Q = COC(=O)c1sc(Nc2nc(Nc3ccc(S(N)(=O)=O)cc3)ncc2OC)nc1C
R = CCOC(=O)c1sc(Nc2nc(Nc3ccc(S(N)(=O)=O)cc3)ncc2C)nc1C
S = Cc1cnc(Nc2ccc(S(=O)(=O)N3CCCCC3)cc2)nc1Nc1nccs1
T = COCCNS(=O)(=O)c1ccc(Nc2ncc(C)c(Nc3nccs3)n2)cc1
Please order the records by their reported inhibition, lowest number first. Labels, ranked as asked. S, Q, P, T, R
(S: 4%, Q: 19%, P: 32%, T: 46%, R: 83%)

P = COc1cnc(Nc2ccc(S(N)(=O)=O)cc2)nc1Nc1ncc(C)s1
Q = Cc1cnc(Nc2ccc(S(=O)(=O)NC(C)C)cc2)nc1Nc1nccs1
R = COc1ccc(Nc2nccc(Nc3ncco3)n2)cc1
S = NS(=O)(=O)c1ccc(Nc2ncc(F)c(Nc3nc(C4CC4)cs3)n2)cc1
Sort these compounds on inhibition so the largest reading comes first. Quick reminder: the answer is the labels in the order asked. P, S, Q, R
(P: 75%, S: 51%, Q: 31%, R: 21%)
